Source of measurements: patent US20260132197A1

target-or-system: T1, wild type human CD47 (Acro Biosystems, cat. no. CD7-H5227) (human, UniProt Q08722 19-139)
T1 construct: Bought protein used as SPR analyte; also called Human CD47 wt; wild-type CD47
T1 sequence (Q08722 19-139 limits assumed): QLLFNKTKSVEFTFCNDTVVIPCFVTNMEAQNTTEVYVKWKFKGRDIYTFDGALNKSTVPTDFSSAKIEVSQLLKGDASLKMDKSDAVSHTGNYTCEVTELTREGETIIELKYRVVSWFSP
experiment: SPR, IgG captured, CD47 in flow; exp 2;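 note: rates derived from association and dissociation curves, KD estimated from them, C33G mutein used to avoid CD47 IgV homodimers for true monovalent affinity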
This listing pairs binders with measured koff.
Report field: quantity (unit follows the number).

Recorded results for 2 binders are shown here.
So what does the record say about koff for 108VH10 / 108VL10.Ma (antibody, V domains shown, 4D5-framework series; constant regions not restated for this series; also called VH10 VL10.Ma) VH: EVQLVESGGGLVQPGGSLRLSCAASGYSFTHHWIHWVRQAPGKGLEWVAMIDPSDSETRLSQKFKDRFTISADTSKNTAYLQMNSLRAEDTAVYYCSRLGRYYFDYWGQGTLVTVSS VL: DIQMTQSPSSLSASVGDRVTITCRASQSISSYLNWYQQKPGKAPKLLIYGASNRYTGVPSRFSGSRSGTDFTLTISSLQPEDFATYYCGESYGHLYTFGQGTKVEIK ?
0.0015 s⁻¹

Param item = 108VH10 / 108VL10.Mc (antibody, V domains shown, 4D5-framework series; constant regions not restated for this series; also called VH10 VL10.Mc) VH: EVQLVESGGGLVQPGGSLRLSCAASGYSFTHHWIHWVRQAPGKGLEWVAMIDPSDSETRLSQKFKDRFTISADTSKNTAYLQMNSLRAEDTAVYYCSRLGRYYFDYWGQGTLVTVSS VL: DIQMTQSPSSLSASVGDRVTITCRASENVGTYISWYQQKPGKAPKLLIYGASSRYTGVPSRFSGSRSGTDFTLTISSLQPEDFATYYCGESYGHLYTFGQGTKVEIK ; retrieve measured koff.
0.002 s⁻¹

Shifting focus to the binder that follows.
So what does the record say about koff for 108VH10.Me / 108VL10.M1 (antibody, V domains shown, 4D5-framework series; constant regions not restated for this series; Pro53 replaced with Gln; also called VH10.Me VL10.M1) VH: EVQLVESGGGLVQPGGSLRLSCAASGYSFTHHWIHWVRQAPGKGLEWVAMIDQSDSETRLSQKFKDRFTISADTSKNTAYLQMNSLRAEDTAVYYCSRLGRYYFDYWGQGTLVTVSS VL: DIQMTQSPSSLSASVGDRVTITCRASENVGTYISWYQQKPGKAPKLLIYGASNRYTGVPSRFSGSRSGTDFTLTISSLQPEDFATYYCGESYGHLYTFGQGTKVEIK ?
0.0027 s⁻¹
